B1: CPEB3 Ribozyme (parent)
chain: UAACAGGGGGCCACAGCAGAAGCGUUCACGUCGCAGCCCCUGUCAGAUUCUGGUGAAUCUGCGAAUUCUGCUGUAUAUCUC

# Variants of: B1
# test: self-cleavage, relative activity (ratio to wild type); higher = more cleavage; in vitro, sequencing
# if value of self-cleavage reaches 0.5, tag yes (1); if it stays below, tag no (0)

A selection of reference data follows.
{"residue_change": "C62A A75G", "group_label": "no (0)"}
{"residue_change": "G61U G70A", "group_label": "no (0)"}
{"residue_change": "C40A A75U", "group_label": "no (0)"}
{"residue_change": "A3G C12U", "group_label": "yes (1)"}
{"residue_change": "A15U U54A", "group_label": "yes (1)"}
{"residue_change": "U48A U60G", "group_label": "no (0)"}

Now consider the entry below.
(Q) Textbook exercise: given the entry G6A U41C , state whether its self-cleavage is greater than or equal to 0.5.
(A) no (0)

Measured values drawn from the RNAGym collection of RNA variant scans (doi:10.1093/nar/gkz1192) for this set.
